relative viability by entry:
# Test system: RERF-LC-KJ
# ASSAY_PROCEDURE: relative viability (nuclei count vs DMSO), 5 days (fraction); higher = more cells survive
# CONDITION_LABEL: first compound 0.006325 µM
Quick one: just the number, no unit, thanks!

Solved entries (count: 5):
COMPOUND	TESTED_ON	relative viability
CCNC(=O)c1noc(-c2cc(C(C)C)c(O)cc2O)c1-c1ccc(CN2CCOCC2)cc1 [Luminespib] + CS(=O)(=O)N1CCN(Cc2cc3nc(-c4cccc5[nH]ncc45)nc(N4CCOCC4)c3s2)CC1 [Pictilisib] (partner 1 µM)	RERF-LC-KJ	0.636
CCNC(=O)c1noc(-c2cc(C(C)C)c(O)cc2O)c1-c1ccc(CN2CCOCC2)cc1 [Luminespib] + C[C@]1(O)C[C@@H](c2nc(-c3ccc4ccc(-c5ccccc5)nc4c3)c3c(N)nccn32)C1 [Linsitinib] (partner 1 µM)	RERF-LC-KJ	0.846
CCNC(=O)c1noc(-c2cc(C(C)C)c(O)cc2O)c1-c1ccc(CN2CCOCC2)cc1 [Luminespib] + Nc1ncn([C@H]2C[C@H](O)[C@@H](CO)O2)c(=O)n1 [Decitabine] (partner 2 µM)	RERF-LC-KJ	0.669
CCNC(=O)c1noc(-c2cc(C(C)C)c(O)cc2O)c1-c1ccc(CN2CCOCC2)cc1 [Luminespib] + Nc1nc2[nH]cc(CCc3ccc(C(=O)N[C@@H](CCC(=O)O)C(=O)O)cc3)c2c(=O)[nH]1 [Pemetrexed] (partner 0.2 µM)	RERF-LC-KJ	0.449
CCNC(=O)c1noc(-c2cc(C(C)C)c(O)cc2O)c1-c1ccc(CN2CCOCC2)cc1 [Luminespib] + CS(=O)(=O)CCNCc1ccc(-c2ccc3ncnc(Nc4ccc(OCc5cccc(F)c5)c(Cl)c4)c3c2)o1 [Lapatinib] (partner 2 µM)	RERF-LC-KJ	0.812

Problem: What measured relative viability goes with CCNC(=O)c1noc(-c2cc(C(C)C)c(O)cc2O)c1-c1ccc(CN2CCOCC2)cc1 [Luminespib] + CC1(C)CCC(c2ccc(Cl)cc2)=C(CN2CCN(c3ccc(C(=O)NS(=O)(=O)c4ccc(N[C@H](CCN5CCOCC5)CSc5ccccc5)c(S(=O)(=O)C(F)(F)F)c4)cc3)CC2)C1 [Navitoclax] (partner 0.5 µM) ?
Result: 1.11
